Target: T1, human APRIL protein (human, UniProt O75888 105-250, limits assumed)
T1 construct: Bought protein; also called recombinant APRIL protein
T1 sequence (looked up): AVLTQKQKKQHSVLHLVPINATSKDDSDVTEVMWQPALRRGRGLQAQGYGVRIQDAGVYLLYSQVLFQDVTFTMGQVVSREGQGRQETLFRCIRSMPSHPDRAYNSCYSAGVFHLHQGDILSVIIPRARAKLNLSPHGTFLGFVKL
Assay: ELISA, coated APRIL; antibody 0 nM (blank)
# OD450 nm per record follows

Binder | OD450 nm
111D10D6G3 (antibody, V domains shown, Mouse hybridoma antibody purified on Protein G) VH: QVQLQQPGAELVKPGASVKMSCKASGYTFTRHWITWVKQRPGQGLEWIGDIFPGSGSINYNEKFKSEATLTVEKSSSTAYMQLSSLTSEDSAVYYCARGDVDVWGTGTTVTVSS VL: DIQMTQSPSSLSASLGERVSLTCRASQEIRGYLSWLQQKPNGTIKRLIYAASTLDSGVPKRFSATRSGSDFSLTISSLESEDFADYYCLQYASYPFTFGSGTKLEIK | 0.0547
67A2E1D10 (antibody, V domains shown, Mouse hybridoma antibody purified on Protein G) VH: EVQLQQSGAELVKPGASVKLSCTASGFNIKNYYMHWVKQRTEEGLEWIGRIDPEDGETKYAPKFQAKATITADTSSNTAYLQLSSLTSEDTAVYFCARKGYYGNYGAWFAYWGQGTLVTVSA VL: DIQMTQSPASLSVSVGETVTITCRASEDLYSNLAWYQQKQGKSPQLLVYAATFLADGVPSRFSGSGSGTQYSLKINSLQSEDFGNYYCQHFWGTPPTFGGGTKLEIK | 0.053

Reference for the values: patent US20210347873A1
